# protocol_text: activity coefficient (dimensionless); of the first substance listed, at infinite dilution; xn = mol fraction of the nth substance listed
# measurement_context: 328.15 K; Liquid; Chromatography; x1 = 0
measured_endpoint: activity coefficient

molecule="C#CCCCCCC [1-octyne] + CCCCn1cc[n+](C)c1.N#CN=C=[N-]" test_value=13
molecule="CCOCC [diethyl ether] + CCCCn1cc[n+](C)c1.N#CN=C=[N-]" test_value=7.11

[A] c1ccsc1 [thiophene] + CCCCn1cc[n+](C)c1.N#CN=C=[N-]
[B] O [water] + CCCCn1cc[n+](C)c1.N#CN=C=[N-]
[C] C1CCCCC1 [cyclohexane] + CCCCn1cc[n+](C)c1.N#CN=C=[N-]
[D] CC(C)CC(C)(C)C [2,2,4-trimethylpentane] + CCCCn1cc[n+](C)c1.N#CN=C=[N-]
Order the records, beginning with the lowest activity coefficient and ending with the highest. Please, when replying, give the labels in the order that was requested. B, A, C, D
